# System: SNB-75 CNS
# Assay explanation: NCI-60 one-dose screen, 48 h
# Test settings: 10 µM unless noted
About 83,000 compounds went through this panel and 20% of them were active in at least one assay; those are over-represented in the sample as a whole. Activity calls are given as the source filed them. How the source made its calls: active means growth percent below 10; inactive means the rest.
Outcomes: Y for active, N for inactive

* CN(C)c1ccc(/C=C/c2sc3ccc4ccccc4c3[n+]2C)cc1 | Y
* S=c1[nH]c2cc(Cl)ccc2s1 | N
* CCC(C)(O)Cc1ccc(Cl)cc1 (stereo not drawn) | N
* CC1(O)CCCCCC1 | N
* CC12CCC(O)CC1=CCC1C2CCC2(C)C3=NN=CC3CC12 (stereo not drawn) | N
* CCSc1nc2ccccc2o1 | N
* O=[n+]1c2ccccc2n([O-])c2cc(Cl)ccc21 | N
* CCOC(=O)c1cc(CC)sc1NC(=O)CC(C)=O | N
* Clc1ccc(-n2ncc3c(NCCCN4CCOCC4)ncnc32)cc1 | N
* NC(=Nc1nc(-c2ccccn2)cc2ccccc12)c1ccccn1 | N
* CCCC[n+]1c(/C=C\c2c(OC)cc(OC)cc2OC)ccc2ccccc21 | Y
* NC(CS/C(Cl)=C/Cl)C(=O)O (stereo not drawn) | N
* CC1C(c2ccccc2)OCCN1C(=S)Nc1ccc(S(=O)(=O)N2CCCCC2)cc1 (stereo not drawn) | N

Taken from PubChem BioAssay (NCI).
